Attribute: SALL4 ZNF1-2 GFP/RFP Relative Abundance
- TARGET UNDER TEST: SALL4 ZNF1-2 (Homo sapiens, UniProt Q96SW2+Q9UJQ4)
- Construct: IKZF1Δ, IKZF2Δ, GSPT1 and SALL4 ZnF1-2 were subcloned; expressed in transfected cells; host or cells: Flp-In 293
- Sequence (Q9UJQ4 378-438 limits assumed): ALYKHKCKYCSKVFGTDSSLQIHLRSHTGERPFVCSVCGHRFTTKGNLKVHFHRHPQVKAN
- Sequence (Q96SW2 whole entry): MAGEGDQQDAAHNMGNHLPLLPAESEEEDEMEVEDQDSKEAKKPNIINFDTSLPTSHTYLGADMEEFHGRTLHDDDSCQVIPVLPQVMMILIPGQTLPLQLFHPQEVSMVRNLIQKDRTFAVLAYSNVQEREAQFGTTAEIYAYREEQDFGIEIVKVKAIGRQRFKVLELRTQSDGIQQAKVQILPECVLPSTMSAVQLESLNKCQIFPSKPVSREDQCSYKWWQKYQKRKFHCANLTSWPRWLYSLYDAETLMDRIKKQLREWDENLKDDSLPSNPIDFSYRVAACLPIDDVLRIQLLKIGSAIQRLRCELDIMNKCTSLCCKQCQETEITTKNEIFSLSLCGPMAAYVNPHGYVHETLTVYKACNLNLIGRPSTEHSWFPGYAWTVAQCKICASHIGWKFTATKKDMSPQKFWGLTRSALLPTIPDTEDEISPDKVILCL
- Sequence (Q16531 whole entry partner): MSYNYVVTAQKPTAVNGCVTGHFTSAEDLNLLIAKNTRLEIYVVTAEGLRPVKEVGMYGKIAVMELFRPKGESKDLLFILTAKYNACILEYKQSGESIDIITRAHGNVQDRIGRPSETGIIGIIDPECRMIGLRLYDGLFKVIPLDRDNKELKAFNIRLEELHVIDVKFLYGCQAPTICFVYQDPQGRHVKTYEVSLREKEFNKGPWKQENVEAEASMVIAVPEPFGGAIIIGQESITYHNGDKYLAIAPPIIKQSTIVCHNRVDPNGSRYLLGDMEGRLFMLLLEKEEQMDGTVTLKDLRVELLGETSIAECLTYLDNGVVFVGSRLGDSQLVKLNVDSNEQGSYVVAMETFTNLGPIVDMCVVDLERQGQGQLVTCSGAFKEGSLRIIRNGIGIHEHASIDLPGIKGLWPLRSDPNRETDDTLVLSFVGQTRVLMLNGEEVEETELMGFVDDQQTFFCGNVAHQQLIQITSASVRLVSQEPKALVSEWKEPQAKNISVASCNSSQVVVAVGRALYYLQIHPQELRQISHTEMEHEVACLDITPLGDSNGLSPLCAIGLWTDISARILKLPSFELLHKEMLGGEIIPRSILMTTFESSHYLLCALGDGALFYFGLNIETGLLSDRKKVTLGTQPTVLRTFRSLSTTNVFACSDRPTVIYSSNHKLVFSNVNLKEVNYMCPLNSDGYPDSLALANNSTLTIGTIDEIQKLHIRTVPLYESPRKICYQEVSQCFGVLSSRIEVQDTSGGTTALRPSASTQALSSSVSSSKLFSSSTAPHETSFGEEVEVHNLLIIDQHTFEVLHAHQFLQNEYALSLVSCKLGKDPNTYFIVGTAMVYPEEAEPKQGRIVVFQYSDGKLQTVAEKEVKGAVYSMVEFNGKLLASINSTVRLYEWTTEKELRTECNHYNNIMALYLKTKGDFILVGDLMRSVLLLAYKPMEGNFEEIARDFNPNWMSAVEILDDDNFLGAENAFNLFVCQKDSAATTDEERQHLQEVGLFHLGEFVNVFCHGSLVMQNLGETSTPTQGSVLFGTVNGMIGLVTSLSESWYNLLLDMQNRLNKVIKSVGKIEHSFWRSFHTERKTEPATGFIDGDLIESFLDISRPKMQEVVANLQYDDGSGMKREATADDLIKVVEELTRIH
- ASSAY REMARKS: Cellular degradation assay, eGFP-SALL4 ZnF1-2 fusion with mCherry reporter in Flp-In 293 cells
- Type: cell-based
- ASSAY CONTEXT: compound concentration 2.00E−06; 5 h incubation; n=1
Number only, please.

Solved cases (3 shown):
| MOLECULE | SALL4 ZNF1-2 GFP/RFP Relative Abundance |
| --- | --- |
| CN(C)C(=O)c1cccc(NC2=CC(=O)N(C3CCC(=O)NC3=O)C2=O)c1 (stereo not shown) | 0.813 |
| CN(C)C(=O)Cc1ccc(NC2=CC(=O)N(C3CCC(=O)NC3=O)C2=O)cc1 (stereo not shown) | 1.033 |
| Cc1ccc(NC(=O)NCc2ccccc2NC2=CC(=O)N(C3CCC(=O)NC3=O)C2=O)cc1Cl (stereo not shown) | 0.993 |

Consider the record given below.
Query: What value of measured SALL4 ZNF1-2 GFP/RFP Relative Abundance is listed for Cc1cc(NC2=CC(=O)N(C3CCC(=O)NC3=O)C2=O)ccc1Cl (stereo not shown) ?
Result: 0.850

---

Attribute: TR-FRET-IKZF2 (Normalized to CC-885)
- TARGET UNDER TEST: CRBN and Helios (IKZF2) (Homo sapiens, UniProt Q96SW2+Q9UKS7)
- Construct: His (N); Strep (N)
- Sequence (Q96SW2 whole entry): as the sequence (Q96SW2 whole entry) above
- Sequence (Q9UKS7 whole entry): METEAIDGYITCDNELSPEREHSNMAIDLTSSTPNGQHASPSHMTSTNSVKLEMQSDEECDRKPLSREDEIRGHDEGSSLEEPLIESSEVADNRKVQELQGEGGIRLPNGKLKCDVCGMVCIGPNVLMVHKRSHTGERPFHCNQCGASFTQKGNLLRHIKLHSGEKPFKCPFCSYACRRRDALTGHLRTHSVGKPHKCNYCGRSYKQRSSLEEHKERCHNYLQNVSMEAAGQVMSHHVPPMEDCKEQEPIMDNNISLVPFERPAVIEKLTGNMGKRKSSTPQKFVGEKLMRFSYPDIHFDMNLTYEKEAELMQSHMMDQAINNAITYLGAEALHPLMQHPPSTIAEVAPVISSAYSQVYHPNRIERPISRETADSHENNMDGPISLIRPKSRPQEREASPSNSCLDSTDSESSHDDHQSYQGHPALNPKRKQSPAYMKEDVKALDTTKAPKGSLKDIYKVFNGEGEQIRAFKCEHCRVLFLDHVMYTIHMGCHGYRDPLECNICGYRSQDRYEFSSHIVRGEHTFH
- ASSAY REMARKS: TR-FRET dimerization assay (CRBN-IKZF2 ternary complex formation)
- Type: binding
- ASSAY CONTEXT: compound concentration 6.6667E−06; n=1
Number only, please.

| COMPOUND | TR-FRET-IKZF2 (Normalized to CC-885) |
| --- | --- |
| Cc1cc(CNC(=O)NCc2cccc(NC3=CC(=O)N(C4CCC(=O)NC4=O)C3=O)c2)ccc1Cl (stereo not drawn) [Compound 82] | 0.975 |
| Cc1ccc(NC(=O)CC(C)c2cccc(NC3=CC(=O)N(C4CCC(=O)NC4=O)C3=O)c2)cc1Cl (stereo not drawn) [Compound 137] | 1.677 |

Consider the record given below.
Query: Quick check: TR-FRET-IKZF2 (Normalized to CC-885) on CRBN and Helios (IKZF2) (Homo sapiens, UniProt Q96SW2+Q9UKS7), item Cc1ccc(NC(=O)/C=C/c2cccc(NC3=CC(=O)N(C4CCC(=O)NC4=O)C3=O)c2)cc1Cl (stereo not drawn) [Compound 57] ?
Result: 0.365

---

- TARGET UNDER TEST: GSPT1 (Homo sapiens, UniProt P15170+Q96SW2)
- Sequence (P15170 whole entry, the tested form may be a part): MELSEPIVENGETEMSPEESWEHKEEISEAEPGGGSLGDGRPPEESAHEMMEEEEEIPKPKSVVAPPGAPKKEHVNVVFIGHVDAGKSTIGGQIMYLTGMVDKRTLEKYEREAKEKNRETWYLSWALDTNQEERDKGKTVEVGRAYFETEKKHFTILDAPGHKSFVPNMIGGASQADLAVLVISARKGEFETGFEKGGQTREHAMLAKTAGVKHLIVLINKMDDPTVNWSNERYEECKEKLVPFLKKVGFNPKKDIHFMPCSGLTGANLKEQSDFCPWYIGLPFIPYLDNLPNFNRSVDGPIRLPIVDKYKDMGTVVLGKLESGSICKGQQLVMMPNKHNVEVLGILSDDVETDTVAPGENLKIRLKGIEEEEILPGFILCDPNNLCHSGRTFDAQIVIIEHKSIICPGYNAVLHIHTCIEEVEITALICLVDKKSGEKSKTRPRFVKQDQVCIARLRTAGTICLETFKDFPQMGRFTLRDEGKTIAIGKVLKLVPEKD
- Sequence (Q96SW2 whole entry, the tested form may be a part): as the sequence (Q96SW2 whole entry) above
- Sequence (Q16531 whole entry partner, the tested form may be a part): as the sequence (Q16531 whole entry partner) above
- ASSAY REMARKS: Cellular degradation assay, eGFP-GSPT1 fusion with mCherry reporter in Flp-In 293 cells
- Assay type: cell-based
- Design: expressed in transfected cells; host or cells: Flp-In 293
- ASSAY CONTEXT: compound concentration 2.00E−06; 5 h incubation; n=1
Label scheme, based on GSPT1 GFP/RFP Relative Abundance: low = under 0.7, medium = from 0.7 up to 0.9, high = 0.9 and over

Solved entries (count: 5):
| MOLECULE | ASSIGNED LABEL |
| --- | --- |
| O=C(O)CCCNC1=CC(=O)N(C2CCC(=O)NC2=O)C1=O (centres unmarked) | high |
| Cc1ccc(NC(=O)NCCNC2=CC(=O)N(C3CCC(=O)NC3=O)C2=O)cc1Cl (centres unmarked) | low |
| O=C1CCC(N2C(=O)C=C(Nc3ccc4cn[nH]c4c3)C2=O)C(=O)N1 (centres unmarked) | medium |
| Cc1ccc(NC(=O)Nc2ccc(NC3=CC(=O)N(C4CCC(=O)NC4=O)C3=O)cc2)cc1Cl (centres unmarked) | low |
| Cc1ccc(NC(=O)NCc2cccc(NC3=CC(=O)N(C4CCC(=O)NC4=O)C3=O)c2)cc1C (centres unmarked) | low |

Here is the next item to consider.
Query: Assign a bin to O=C1CCC(N2C(=O)C=C(Nc3ccc(Cc4ccccc4)cc3)C2=O)C(=O)N1 (centres unmarked)
Result: medium

---

- TARGET UNDER TEST: IKZF1 (Homo sapiens, UniProt Q13422)
- Construct: expressed in transfected cells; host or cells: Flp-In 293
- Sequence (Q13422 83-213 isoform Q13422-7 limits assumed): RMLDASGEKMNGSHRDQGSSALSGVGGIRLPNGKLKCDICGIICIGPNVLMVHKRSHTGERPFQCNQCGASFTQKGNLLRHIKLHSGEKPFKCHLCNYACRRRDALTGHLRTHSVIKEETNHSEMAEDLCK
- Sequence (Q96SW2 whole entry partner): as the sequence (Q96SW2 whole entry) above
- Sequence (Q16531 2-1140 partner limits assumed): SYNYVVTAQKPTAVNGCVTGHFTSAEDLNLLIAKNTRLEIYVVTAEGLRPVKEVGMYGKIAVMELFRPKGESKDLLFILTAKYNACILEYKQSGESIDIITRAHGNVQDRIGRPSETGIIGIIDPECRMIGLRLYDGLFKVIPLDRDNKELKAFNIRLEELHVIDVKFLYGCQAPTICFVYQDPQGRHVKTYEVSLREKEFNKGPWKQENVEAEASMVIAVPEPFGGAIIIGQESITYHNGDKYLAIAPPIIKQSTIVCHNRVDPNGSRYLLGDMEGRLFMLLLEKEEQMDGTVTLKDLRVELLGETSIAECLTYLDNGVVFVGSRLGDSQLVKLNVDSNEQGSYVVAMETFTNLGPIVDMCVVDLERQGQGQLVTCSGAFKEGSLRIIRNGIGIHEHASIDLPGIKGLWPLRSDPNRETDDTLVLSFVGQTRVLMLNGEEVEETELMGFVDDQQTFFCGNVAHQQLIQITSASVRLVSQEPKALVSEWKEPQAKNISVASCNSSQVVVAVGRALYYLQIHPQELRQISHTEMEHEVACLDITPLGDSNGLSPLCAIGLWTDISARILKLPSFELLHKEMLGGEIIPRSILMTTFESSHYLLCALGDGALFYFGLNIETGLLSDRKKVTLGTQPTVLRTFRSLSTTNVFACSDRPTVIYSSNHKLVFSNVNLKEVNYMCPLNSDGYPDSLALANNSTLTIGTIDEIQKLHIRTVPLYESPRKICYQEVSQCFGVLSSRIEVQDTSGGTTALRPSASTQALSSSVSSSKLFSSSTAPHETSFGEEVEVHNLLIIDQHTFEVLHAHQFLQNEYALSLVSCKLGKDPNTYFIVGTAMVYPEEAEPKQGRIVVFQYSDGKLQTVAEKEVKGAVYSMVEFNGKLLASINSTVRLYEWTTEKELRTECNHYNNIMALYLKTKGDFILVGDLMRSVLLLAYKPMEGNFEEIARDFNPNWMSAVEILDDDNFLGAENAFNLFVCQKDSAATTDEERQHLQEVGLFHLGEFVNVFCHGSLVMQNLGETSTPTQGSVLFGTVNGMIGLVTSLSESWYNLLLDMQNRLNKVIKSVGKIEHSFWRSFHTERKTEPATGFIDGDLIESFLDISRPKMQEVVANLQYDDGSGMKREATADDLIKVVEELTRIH
- ASSAY REMARKS: Cellular degradation assay, eGFP-IKZF1Δ fusion with mCherry reporter in Flp-In 293 cells
- Type: cell-based
- ASSAY CONTEXT: compound concentration 2.00E−07; 5 h incubation; n=1
Attribute: IKZF1 GFP/RFP Relative Abundance
Number only, please.

| COMPOUND | TARGET UNDER TEST | IKZF1 GFP/RFP Relative Abundance |
| --- | --- | --- |
| O=C1CCC(N2C(=O)C=C(Nc3cccc(-c4cc[nH]n4)c3)C2=O)C(=O)N1 (centres unmarked) [Compound 31] | IKZF1 (Homo sapiens, UniProt Q13422) | 0.399 |
| Cc1ccc(CC(=O)NCc2cccc(NC3=CC(=O)N(C4CCC(=O)NC4=O)C3=O)c2)cc1C (centres unmarked) [Compound 60] | IKZF1 (Homo sapiens, UniProt Q13422) | 0.091 |
| O=C1CCC(N2C(=O)C=C(Nc3cccc(-c4nnn[nH]4)c3)C2=O)C(=O)N1 (centres unmarked) [Compound 23] | IKZF1 (Homo sapiens, UniProt Q13422) | 0.756 |
| Cc1ccc(NC(=O)NCc2cc(NC3=CC(=O)N(C4CCC(=O)NC4=O)C3=O)ccc2OC(=O)N(C)C)cc1Cl (centres unmarked) [Compound 95] | IKZF1 (Homo sapiens, UniProt Q13422) | 0.960 |
| O=C1CCC(N2C(=O)C=C(Nc3cccc(CNC(=O)Nc4ccc(Cl)c(Cl)c4)c3)C2=O)C(=O)N1 (centres unmarked) [Compound 59] | IKZF1 (Homo sapiens, UniProt Q13422) | 0.066 |
| CCOC(=O)CNC1=CC(=O)N(C2CCC(=O)NC2=O)C1=O (centres unmarked) [Compound 16] | IKZF1 (Homo sapiens, UniProt Q13422) | 1.053 |
| Cc1ccc(NC(=O)Nc2cccc(NC3=CC(=O)N(C4CCC(=O)NC4=O)C3=O)c2)cc1Cl (centres unmarked) [Compound 43] | IKZF1 (Homo sapiens, UniProt Q13422) | 0.301 |
| O=C1CCC(N2C(=O)C=C(Nc3cccc(Cl)c3)C2=O)C(=O)N1 (centres unmarked) [Compound 26] | IKZF1 (Homo sapiens, UniProt Q13422) | 0.478 |

Query: What value of measured IKZF1 GFP/RFP Relative Abundance is listed for O=C1CCC(N2C(=O)C=C(Nc3cnc4ccccc4c3)C2=O)C(=O)N1 (centres unmarked) [Compound 27] ?
Result: 0.801

Query: Let us now turn to Cc1ccc(NC(=O)OCc2cccc(NC3=CC(=O)N(C4CCC(=O)NC4=O)C3=O)c2)cc1Cl (centres unmarked) [Compound 48]
Result: 1.000

Query: Let us now turn to Cc1ccc(NC(=O)NCc2cccc(OC3=CC(=O)N(C4CCC(=O)NC4=O)C3=O)c2)cc1Cl (centres unmarked) [Compound 64]
Result: 1.122

Query: Let us now turn to CN(C)C(=O)c1cccc(NC2=CC(=O)N(C3CCC(=O)NC3=O)C2=O)c1 (centres unmarked) [Compound 33]
Result: 0.445

Query: Let us now turn to Cc1cc(CNC(=O)NCc2cccc(NC3=CC(=O)N(C4CCC(=O)NC4=O)C3=O)c2)ccc1Cl (centres unmarked) [Compound 82]
Result: 0.069

Query: Let us now turn to Cc1ccc(NCc2cccc(NC3=CC(=O)N(C4CCC(=O)NC4=O)C3=O)c2)cc1Cl (centres unmarked) [Compound 63]
Result: 0.086

---

- TARGET UNDER TEST: GSPT1 (Homo sapiens, UniProt P15170+Q96SW2)
- ASSAY REMARKS: Cellular degradation assay, eGFP-GSPT1 fusion with mCherry reporter in Flp-In 293 cells
- Type: cell-based
- Design: expressed in transfected cells; host or cells: Flp-In 293
- ASSAY CONTEXT: compound concentration 2.00E−07; 5 h incubation; n=1
Attribute: GSPT1 GFP/RFP Relative Abundance
Number only, please.

| MOLECULE | PROPERTY MEASURED | REPORTED MEASUREMENT |
| --- | --- | --- |
| Cc1ccc(NC2=CC(=O)N(C3CCC(=O)NC3=O)C2=O)cc1Cl (stereo not shown) | GSPT1 GFP/RFP Relative Abundance | 1.190 |
| CN(C)C(=O)Cc1ccc(NC2=CC(=O)N(C3CCC(=O)NC3=O)C2=O)cc1 (stereo not shown) | GSPT1 GFP/RFP Relative Abundance | 1.006 |
| COC(=O)c1n[nH]c(NC2=CC(=O)N(C3CCC(=O)NC3=O)C2=O)n1 (stereo not shown) | GSPT1 GFP/RFP Relative Abundance | 1.069 |
| O=C1CCC(N2C(=O)C=C(Nc3ccc(Cc4ccccc4)cc3)C2=O)C(=O)N1 (stereo not shown) | GSPT1 GFP/RFP Relative Abundance | 0.830 |
| Cc1ccc(NC(=O)c2cccc(NC3=CC(=O)N(C4CCC(=O)NC4=O)C3=O)c2)cc1Cl (stereo not shown) | GSPT1 GFP/RFP Relative Abundance | 0.069 |

Query: Quick check: GSPT1 GFP/RFP Relative Abundance on GSPT1 (Homo sapiens, UniProt P15170+Q96SW2), item O=C1CCC(N2C(=O)C=C(Nc3cccc(-c4nnn[nH]4)c3)C2=O)C(=O)N1 (stereo not shown) ?
Result: 0.953

Query: Let us now turn to CCOC(=O)CN(C)C1=CC(=O)N(C2CCC(=O)NC2=O)C1=O (stereo not shown)
Result: 0.795

Query: Let us now turn to Cc1ccc(NC(=O)NCc2ccccc2NC2=CC(=O)N(C3CCC(=O)NC3=O)C2=O)cc1Cl (stereo not shown)
Result: 1.093

Query: Let us now turn to Cc1ccc(NC(=O)/C=C/c2cccc(NC3=CC(=O)N(C4CCC(=O)NC4=O)C3=O)c2)cc1Cl (stereo not shown)
Result: 0.779

Query: Let us now turn to O=C1CCC(N2C(=O)C=C(Nc3ccc4cc[nH]c4c3)C2=O)C(=O)N1 (stereo not shown)
Result: 1.010

// provenance: patent US12227488B2
